Biological target: TAF1(2) (Homo sapiens, UniProt P21675)
Construct: FALZ, PBRM1-BD2, BPRM1-BDS, TAF1-BD2, TAF1L-BD2
Sequence (P21675 1519-1628 limits assumed): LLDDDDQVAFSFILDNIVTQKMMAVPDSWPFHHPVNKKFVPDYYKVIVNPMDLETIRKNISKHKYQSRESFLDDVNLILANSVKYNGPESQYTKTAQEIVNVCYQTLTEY
Experiment: BROMOscan Kd determination TAF1(2)
pKd: −log10 of the molar value.

{"structure_notation": "Cc1[nH]c(-c2cc(N)ccc2Cl)c2c1C(=O)CCCC2", "pKd": 5.39}

###

Molecular target: TRIM24 (Bromo.) (Homo sapiens)
Construct: T7 phage strains displaying bromodomains were grown in parallel
Sequence (O15164 899-1004 limits assumed): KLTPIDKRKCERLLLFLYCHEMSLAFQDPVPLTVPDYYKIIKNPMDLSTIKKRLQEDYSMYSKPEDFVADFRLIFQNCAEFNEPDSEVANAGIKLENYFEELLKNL
Assay: BROMOscan Kd determination TRIM24 (Bromo.)
pKd: −log10 of the molar value.

{"structure_notation": "Cc1[nH]c(-c2cc(N)ccc2Cl)c2c1C(=O)CCCC2", "pKd": 5.85}

###

Let's look at some compounds and their measured log10 Kd.
Biological target: BRD4(1) (Homo sapiens, UniProt O60885)
Construct: BRD4-BD1 was expressed and purified as described previously; made in house
Assay: Isothermal titration calorimetry, dissociation constant KD BRD4(1)
Format: binding
property_label: log10 Kd (log10 of the value in µM)

{"structure_notation": "CCN(CC)S(=O)(=O)c1ccc(O)c(NC(=O)c2[nH]c(C)c3c2CCCCC3=O)c1", "measured_number": -1.14}
{"structure_notation": "CNC(=O)c1[nH]c(C)c2c1CCCCC2=O", "measured_number": 0.81}
{"structure_notation": "CCOC(=O)c1[nH]c(C)c2c1CCC=CC2=O", "measured_number": 0.92}
{"structure_notation": "CCOC(=O)c1[nH]c(C)c2c1CCCCC2=O", "measured_number": 0.66}
{"structure_notation": "COc1ccc(S(=O)(=O)N2CCOCC2)cc1NC(=O)c1[nH]c(C)c2c1CCCCC2=O", "measured_number": -1.11}
{"structure_notation": "COc1ccc(S(=O)(=O)N2CCN(C)CC2)cc1NC(=O)c1[nH]c(C)c2c1CCCCC2=O", "measured_number": -0.59}
{"structure_notation": "CCCc1[nH]c(-c2cc(N)ccc2Cl)c2c1C(=O)CCCC2", "measured_number": 0.84}
{"structure_notation": "CCN(CC)S(=O)(=O)c1ccc(OC)c(NC(=O)c2[nH]c(C)c3c2CCCCC3=O)c1", "measured_number": -0.84}

###

Target: BRPF1 (Homo sapiens, UniProt P55201)
Construct: T7 phage strains displaying bromodomains were grown; host or cells: T7 phage in E. coli derived from BL21
Experiment: BROMOscan Kd determination BRPF1
Type: binding
Conditions: Table 3 compound 27
pKd: −log10 of the molar value.
property_label: pKd

{"structure_notation": "CCCCc1[nH]c(-c2cc(N)ccc2Cl)c2c1C(=O)CCCC2", "result": "< 5.00"}

###

Target: BRD9 (Homo sapiens, UniProt Q9H8M2)
Construct: T7 phage strains displaying bromodomains were grown; host or cells: T7 phage in E. coli derived from BL21
Sequence (Q9H8M2 136-240 limits assumed): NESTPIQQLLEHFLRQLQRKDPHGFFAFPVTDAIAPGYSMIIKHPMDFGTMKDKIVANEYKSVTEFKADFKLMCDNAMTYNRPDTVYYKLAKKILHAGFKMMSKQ
Assay: BROMOscan Kd determination BRD9
Format: binding
One threshold, 200 nM, splits the recorded Kd values: lower ones are satisfied, equal or higher ones are not satisfied.

{"compound": "COc1ccc(S(=O)(=O)N2CC3(COC3)C2)cc1NC(=O)c1[nH]c(C)c2c1CCCCC2=O [Compound 16]", "qualitative_label": "satisfied"}
{"compound": "COc1ccc(S(=O)(=O)N2CCN(C)CC2)cc1NC(=O)c1[nH]c(C)c2c1CCCCC2=O [Compound 14]", "qualitative_label": "satisfied"}
{"compound": "Cc1[nH]c(-c2cc(N)ccc2Cl)c2c1C(=O)CCCC2 [Compound 23]", "qualitative_label": "satisfied"}
{"compound": "COc1ccc(S(=O)(=O)N2CCCCCC2)cc1NC(=O)c1[nH]c(C)c2c1CCCCC2=O [Compound 12]", "qualitative_label": "not satisfied"}
{"compound": "COc1ccc(S(=O)(=O)N2CCCCC2)cc1NC(=O)c1[nH]c(C)c2c1CCCCC2=O [Compound 15]", "qualitative_label": "not satisfied"}
{"compound": "CCN(CC)S(=O)(=O)c1ccc(OC)c(NC(=O)c2[nH]c(C)c3c2CCCCC3=O)c1 [Compound 11]", "qualitative_label": "satisfied"}
{"compound": "COc1ccc(S(=O)(=O)N2CCOCC2)cc1NC(=O)c1[nH]c(C)c2c1CCCCC2=O [Compound 13]", "qualitative_label": "satisfied"}
{"compound": "CCCc1[nH]c(-c2cc(N)ccc2Cl)c2c1C(=O)CCCC2 [Compound 26]", "qualitative_label": "satisfied"}

###

Biological target: BRD4(1) (Homo sapiens)
Construct: BRD4-BD1 was expressed and purified as described previously; made in house
Assay: BROMOscan Kd determination BRD4(1)
Type: binding
Conditions: Table 3 compound 27

{"compound": "CCCCc1[nH]c(-c2cc(N)ccc2Cl)c2c1C(=O)CCCC2 [Compound 27]", "Kd": "> 10 µM"}

###

Molecular target: BRPF1B (Homo sapiens, UniProt P55201)
Construct: dissociation constants KD for two bromodomains (BRD4(1) and BRPF1B)
Sequence (P55201 628-732 limits assumed): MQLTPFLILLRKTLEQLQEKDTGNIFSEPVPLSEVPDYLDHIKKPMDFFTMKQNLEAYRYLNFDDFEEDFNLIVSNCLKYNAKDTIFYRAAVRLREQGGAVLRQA
Test: Dissociation constant KD BRPF1B

{"structure_notation": "Cc1[nH]c(-c2cc(N)ccc2Cl)c2c1C(=O)CCCC2", "uom": "µM", "inequality_sign": "=", "Kd": 0.166}
{"structure_notation": "CCOC(=O)c1[nH]c(C)c2c1CCC=CC2=O", "uom": "µM", "inequality_sign": "=", "Kd": 2.05}
{"structure_notation": "CNC(=O)c1[nH]c(C)c2c1CCCCC2=O", "uom": "µM", "inequality_sign": "=", "Kd": 5.08}
{"structure_notation": "Cc1[nH]c(-c2cccc(N)c2)c2c1C(=O)CCCC2", "uom": "µM", "inequality_sign": "=", "Kd": 0.567}
{"structure_notation": "Cc1[nH]c(-c2ccccc2)c2c1C(=O)CCCC2", "uom": "µM", "inequality_sign": "=", "Kd": 1.99}
{"structure_notation": "CCCCc1[nH]c(-c2cc(N)ccc2Cl)c2c1C(=O)CCCC2", "uom": "µM", "inequality_sign": ">", "Kd": 10}
{"structure_notation": "Cc1[nH]c(-c2ccc3cc[nH]c3c2)c2c1C(=O)CCCC2", "uom": "µM", "inequality_sign": "=", "Kd": 0.639}
{"structure_notation": "CCCc1[nH]c(-c2cc(N)ccc2Cl)c2c1C(=O)CCCC2", "uom": "µM", "inequality_sign": "=", "Kd": 7}
{"structure_notation": "Cc1[nH]c(-c2cccc(O)c2)c2c1C(=O)CCCC2", "uom": "µM", "inequality_sign": "=", "Kd": 0.91}
{"structure_notation": "Cc1noc(-c2[nH]c(C)c3c2CCCCC3=O)n1", "uom": "µM", "inequality_sign": "=", "Kd": 2.31}
{"structure_notation": "Cc1[nH]c(-c2cccc(C(N)=O)c2)c2c1C(=O)CCCC2", "uom": "µM", "inequality_sign": "=", "Kd": 0.713}
{"structure_notation": "CCOC(=O)c1[nH]c(C)c2c1CCCCC2=O", "uom": "µM", "inequality_sign": "=", "Kd": 1.05}

###

Biological target: BRD4(short-iso.) (Homo sapiens, UniProt O60885)
Assay: BROMOscan Kd determination BRD4(short-iso.)
pKd: −log10 of the molar value.
property_label: pKd

{"structure_notation": "Cc1[nH]c(-c2cc(N)ccc2Cl)c2c1C(=O)CCCC2", "property_label": "pKd", "measured_number": 6.74}
